Recorded normalized growth, one value per entry.
experiment: chemical genetic growth profiling, strain panel (AID 1159580);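 further: tested at 20 µM; growth read once vehicle control cultures reached saturation at 30 °C; 1 = growth at the plate median or of vehicle wells; lower values mean less growth of the strain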; details: S. cerevisiae deletion strains, growth OD, locus YGL227W, strain vid30, hits give low values
Screen size: about 5,500 compounds; about 2,000 (36%) were called active. Another 18% or so got no clear call; they are omitted. This is one part of the list.
Reply: number alone, nothing else.

Example entries begin here.
molecule: CCC(C)C(=O)O[C@@H]1C[C@@]2(C)[C@H](c3ccoc3)OC(=O)CC23OC2(C)OC34[C@H](OC(=O)C(C)C)[C@@]3(O)[C@@H](OC(=O)C5(C)OC5C)[C@@]5(C)C[C@]3(O)[C@@](C)([C@H]5CC(=O)OC)C14O2 (some centres not stated)
normalized growth: 0.992
//
molecule: Oc1cc(O)c2c(c1)O[C@H](c1ccc(O)c(O)c1)[C@@H](O)C2
normalized growth: 1
//
molecule: Oc1ccc2c(c1)O[C@H](c1ccc(O)c(O)c1)[C@@H](O)C2
normalized growth: 1.03
//
molecule: Oc1cc(O)c2c(c1)O[C@H](c1ccc(O)c(O)c1)[C@H](O)C2
normalized growth: 1.01
//
molecule: COc1c(N2CCNC(C)C2)c(F)cc2c(=O)c(C(=O)O)cn(C3CC3)c12 (configuration not stated)
normalized growth: 0.978

input: Report normalized growth for CCn1cc(C(=O)O)c(=O)c2cc(F)c(N3CCNC(C)C3)c(F)c21 (configuration not stated)
output: 0.981

input: Report normalized growth for "CC[C@@H]1C=C/C=C/C[C@H](C)[C@@H](O)[C@](C)(O)C(=O)[C@H](C)[C@@H](O)[C@H](C)C(=O)[C@H](C)[C@@H](O)[C@H](C)/C=C/C(=O)O[C@H]2[C@@H](C)[C@@H](CC1)O[C@@]1(CC[C@@H](C)[C@@H](C[C@H](C)O)O1)[C@@H]2C"
output: 1.01

====

assay: chemical genetic growth profiling, strain panel (AID 1159580); conditions: S. cerevisiae deletion strains, growth OD, locus YDL101C, strain DUN1, hits give low values
Out of some 5,500 compounds screened, about 2,000 (36%) were called active. Inconclusive results (about 18%) are left out. The list shows a part of the results.
value type: normalized growth
Reply: number alone, nothing else.

Example entries begin here.
compound: c1ccc(OCCOc2ccccn2)nc1
normalized growth: 1.01

compound: C=CCc1ccc(O)c(OC)c1
normalized growth: 0.961

compound: COc1ccc(-c2coc3cc(O)ccc3c2=O)c(OC)c1O
normalized growth: 0.97

input: Report normalized growth for OC1(c2ccc(F)cc2)Cc2ccccc2C2=NCCN21 (stereo not drawn)
output: 0.997

input: Report normalized growth for "Fc1cc(I)ccc1Nc1ccnc2cc(Cl)ccc12"
output: 0.981

input: Report normalized growth for "COc1ccc(C(=O)O)cc1OC"
output: 1

input: Report normalized growth for "CCN(CC)Cc1ccc(Nc2ccnc3cc(Cl)ccc23)cc1O"
output: 1.01

input: Report normalized growth for "C/C(Cc1nnn(-c2cc(C)on2)n1)=N/OC(=O)Nc1ccc(Cl)cc1"
output: 1

input: Report normalized growth for "COc1ccc(-c2coc3cc(O)ccc3c2=O)cc1"
output: 0.916

input: Report normalized growth for "CC(C)(C)S(=O)(=O)/C(C#N)=C/c1ccc(F)cc1F"
output: 1

input: Report normalized growth for "C=CCc1ccc(OC(=O)c2ccccc2)c(OC)c1"
output: 0.974

input: Report normalized growth for O=C(OCC(O)CO)c1ccccc1Nc1ccnc2cc(Cl)ccc12 (stereo not drawn)
output: 0.98

====

assay: chemical genetic growth profiling, strain panel (AID 1159580); details: S. cerevisiae deletion strains, growth OD, locus YLR320W, strain mms22
About 2,000 (36%) of roughly 5,500 compounds were called active. About 18% were inconclusive and are not listed. Rule as the data show it: active = normalized growth mostly below about 0.91 (no sharp cut-off); inconclusive = no clear call, values can overlap the other calls; inactive = mostly above about 0.92. This is one part of the list.
Entry note: the call must match one of active, inactive

Please review the entries below; each comes with its answer.
molecule: COc1c(N2CCNC(C)C2)c(F)cc2c(=O)c(C(=O)O)cn(C3CC3)c12 (stereo unspecified)
label value: active
--
molecule: COC(=O)/C=C/C(C)=C/C=C/C(C)=C/C=C/C=C(C)/C=C/C=C(C)/C=C/C(=O)O
label value: inactive
--
molecule: C=C[C@@](C)(O)CCC1C(=C)C[C@H](OC(C)=O)C2C(C)(C)CCCC12C (stereo partly specified)
label value: inactive

input: Given C=C[C@@](C)(O)CCC1C(=C)CCC2[C@@](C)(CO)CCC[C@]12C (stereo partly specified) , state the outcome it received in this test.
output: inactive

input: Given C=CC[C@]1(O)CCC2C3CCC4=CC(=O)CCC4=C3C=C[C@@]21C (stereo partly specified) , state the outcome it received in this test.
output: active

input: Given COc1ccc(OC)c(C(O)CNC(=O)CN)c1 (stereo unspecified) , state the outcome it received in this test.
output: inactive

====

Recorded normalized growth, one value per entry.
assay: chemical genetic growth profiling, strain panel (AID 1159580);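 further: tested at 20 µM; growth read once vehicle control cultures reached saturation at 30 °C; 1 = growth at the plate median or of vehicle wells; lower values mean less growth of the strain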; conditions: S. cerevisiae deletion strains, growth OD, locus YOR144C, strain elg1, hits give low values
Among all 5,500 compounds or so, about 2,000 (36%) were called active. Roughly 18% stayed inconclusive and do not appear here. The list shows a part of the results.
Reply: number alone, nothing else.

molecule: Oc1ccc2c(c1)O[C@H](c1ccc(O)c(O)c1)[C@@H](O)C2
normalized growth: 0.992
--
molecule: Oc1cc(O)c2c(c1)OC(c1cc(O)c(O)c(O)c1)C(O)C2c1c(O)cc(O)c2c1OC(c1cc(O)c(O)c(O)c1)C(O)C2c1c(O)cc(O)c2c1OC(c1cc(O)c(O)c(O)c1)C(O)C2 (centres undefined)
normalized growth: 1
--
molecule: O=C1CCC(N2C(=O)c3ccccc3C2=O)C(=O)N1 (centres undefined)
normalized growth: 0.998
--
molecule: CC1COc2c(N3CCN(C)CC3)c(F)cc3c(=O)c(C(=O)O)cn1c23 (centres undefined)
normalized growth: 1.01
--
molecule: COc1ccc([C@H]2Oc3c(I)c(OC)cc(OC)c3C[C@@H]2O)cc1OC
normalized growth: 1.04
--
molecule: COc1c(N2CCNC(C)C2)c(F)cc2c(=O)c(C(=O)O)cn(C3CC3)c12 (centres undefined)
normalized growth: 0.998
--
molecule: Oc1cc(O)c2c(c1)O[C@H](c1ccc(O)c(O)c1)[C@H](O)C2
normalized growth: 1.01
--
molecule: CCC[C@H](N[C@@H](C)C(=O)N1[C@H](C(=O)O)C[C@@H]2CCCC[C@@H]21)C(=O)OCC
normalized growth: 1.02

Alright, here's another molecule for you.
input: Report normalized growth for CCn1cc(C(=O)O)c(=O)c2cc(F)c(N3CCNC(C)C3)c(F)c21 (centres undefined)
output: 0.992

====

test: chemical genetic growth profiling, strain panel (AID 1159580);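 further: tested at 20 µM; growth read once vehicle control cultures reached saturation at 30 °C; 1 = growth at the plate median or of vehicle wells; lower values mean less growth of the strain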; conditions: S. cerevisiae deletion strains, growth OD, locus YNL248C, strain rpa49
The campaign covered roughly 5,500 compounds. About 2,000 (36%) were called active. Another 18% or so got no clear call; they are omitted. Rule as the data show it: active = normalized growth mostly below about 0.91 (no sharp cut-off); inconclusive = no clear call, values can overlap the other calls; inactive = mostly above about 0.92. The list shows a part of the results.
Entry note: the call must match one of 1.0 for active, 0.0 for inactive

Please review the entries below; each comes with its answer.
molecule: COc1ccc(-c2coc3cc(O)ccc3c2=O)c(O)c1O
label value: 0.0

molecule: C=CCc1ccc(O)c(OC)c1
label value: 0.0

molecule: CCN(CC)C(=O)N1CCN(C)CC1
label value: 0.0

molecule: CC(=O)O[C@H]1C[C@@H](OC(C)=O)C(C)(C)C2CC(=O)[C@]3(C)C(CC[C@@]4(C)[C@H](C(=O)O)OC(=O)C5OC543)[C@]21C (some centres undefined)
label value: 0.0

molecule: CC[C@@]1(O)C[C@H](O[C@H]2C[C@H](N(C)C)[C@H](O)[C@H](C)O2)c2c(cc3c(c2O)C(=O)c2c(O)ccc(O)c2C3=O)[C@H]1C(=O)OC
label value: 0.0

molecule: CC[C@@]1(O)C[C@H](O)c2c(cc3c(c2O)C(=O)c2c(O)ccc(O)c2C3=O)[C@H]1C(=O)OC
label value: 1.0

Moving on to the next molecule.
input: Given "CN1CCC(OC(c2ccccc2)c2ccccc2)CC1" , state the outcome it received in this test.
output: 0.0

====

experiment: chemical genetic growth profiling, strain panel (AID 1159580);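 further: tested at 20 µM; growth read once vehicle control cultures reached saturation at 30 °C; 1 = growth at the plate median or of vehicle wells; lower values mean less growth of the strain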; details: S. cerevisiae deletion strains, growth OD, locus YNL298W, strain CLA4
In all, about 5,500 compounds went through this assay and about 2,000 (36%) were called active. About 18% were inconclusive and are not listed. Cut-off read from the data, not from the text of the source: active = normalized growth mostly below about 0.91 (no sharp cut-off); inconclusive = no clear call, values can overlap the other calls; inactive = mostly above about 0.92. This is one part of the list.
Entry note: the call must match one of active, inactive

compound: NCCC(O)C(=O)NC1CC(N)C(OC2OC(CN)C(O)C(O)C2N)C(OC2OC(CO)C(O)C2O)C1O (stereo unspecified)
label value: inactive

compound: O=C1C(Cl)=C(Cl)C(=O)C(Cl)=C1Cl
label value: active

compound: CCN(CC)C(=O)N1CCN(C)CC1
label value: inactive

compound: Cc1ncc(CNC(=O)N(CCCl)N=O)c(N)n1
label value: inactive

compound: CNCCC(Oc1ccc(C(F)(F)F)cc1)c1ccccc1 (stereo unspecified)
label value: inactive

Moving on to the next compound.
input: Given "CCC[C@H](N[C@@H](C)C(=O)N1[C@H](C(=O)O)C[C@@H]2CCCC[C@@H]21)C(=O)OCC" , state the outcome it received in this test.
output: inactive
